Listed below: thermal shift delta Tm values for each entry.
# Tested on: LOC_OS01G60700-cb002;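 further: purified Escherichia coli-expressed rice kinase domain construct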
# PROTOCOL SUMMARY: thermal shift delta Tm vs DMSO control; higher = stronger stabilization (binding)
# CONDITION SET: 12.5 µM; protein concentration 2 µM

>  <COMPOUND>
c1cc(-c2cnn3cc(-c4ccc(OCCN5CCCCC5)cc4)cnc23)ccn1 [Dorsomorphin 2HCl]

>  <thermal shift delta Tm [°C]>
0.2

$$$$
>  <COMPOUND>
CCOc1cc2ncc(C#N)c(Nc3ccc(OCc4ccccn4)c(Cl)c3)c2cc1NC(=O)/C=C/CN(C)C

>  <thermal shift delta Tm [°C]>
1.67

$$$$
>  <COMPOUND>
Cc1[nH]nc2ccc(-c3cncc(OC[C@@H](N)Cc4ccccc4)c3)cc12

>  <thermal shift delta Tm [°C]>
1.01

$$$$
>  <COMPOUND>
OCCn1cc(-c2ccc3c(c2)CC/C3=N\O)c(-c2ccncc2)n1

>  <thermal shift delta Tm [°C]>
0.99

$$$$
>  <COMPOUND>
Cc1ccc(C(=O)Nc2ccc(CN3CCN(C)CC3)c(C(F)(F)F)c2)cc1C#Cc1cnc2[nH]ncc2c1 [GZD824 Dimesylate]

>  <thermal shift delta Tm [°C]>
1.12

$$$$
>  <COMPOUND>
O=C(Nc1nc2cccc(-c3ccc(CN4CCS(=O)(=O)CC4)cc3)n2n1)C1CC1

>  <thermal shift delta Tm [°C]>
0.53

$$$$
>  <COMPOUND>
C#Cc1cccc(Nc2ncnc3cc4c(cc23)OCCOCCOCCO4)c1

>  <thermal shift delta Tm [°C]>
1.16

$$$$
>  <COMPOUND>
Cc1cc(F)c(Nc2ncnc3cc(OCc4ccccc4)ccc23)cc1O

>  <thermal shift delta Tm [°C]>
2.58

$$$$
>  <COMPOUND>
c1cn2cc(-c3ccc4cn[nH]c4c3)nc(Nc3ccc(N4CCOCC4)cc3)c2n1

>  <thermal shift delta Tm [°C]>
1.39

$$$$
>  <COMPOUND>
CC#CC(=O)N1CCC[C@H]1c1nc(-c2ccc(C(=O)Nc3ccccn3)cc2)c2c(N)nccn12

>  <thermal shift delta Tm [°C]>
1.14

$$$$
>  <COMPOUND>
COc1cc(Nc2ncc(F)c(Nc3ccc4c(n3)NC(=O)C(C)(C)O4)n2)cc(OC)c1OC [R406 (free base)]

>  <thermal shift delta Tm [°C]>
0.44

$$$$
>  <COMPOUND>
Cc1cc(C(C)Nc2ccccc2)c2nc(N3CCOCC3)cc(=O)n2c1 (stereo not drawn)

>  <thermal shift delta Tm [°C]>
0.52

$$$$
>  <COMPOUND>
CC(=O)Nc1nc(C)c(-c2ccc(Cl)c(S(=O)(=O)NCCO)c2)s1

>  <thermal shift delta Tm [°C]>
0.76

$$$$
>  <COMPOUND>
COc1cc(OC)cc(N(CCNC(C)C)c2ccc3ncc(-c4cnn(C)c4)nc3c2)c1

>  <thermal shift delta Tm [°C]>
0.12

$$$$
>  <COMPOUND>
Cc1c[nH]c2nc(Nc3ccc(N4CCN(C)CC4)c(F)c3)nc(-c3cccc(CC#N)c3)c12

>  <thermal shift delta Tm [°C]>
1.98

$$$$
>  <COMPOUND>
CC(C)(C)c1cnc(CSc2cnc(NC(=O)C3CCNCC3)s2)o1

>  <thermal shift delta Tm [°C]>
1.28

$$$$
>  <COMPOUND>
CC1(C)C=Cc2c(ccc3c2OC[C@@H](c2ccc(O)cc2O)C3)O1

>  <thermal shift delta Tm [°C]>
-0.87

$$$$
>  <COMPOUND>
C=CC(=O)N1CCN(CCCn2c(=O)c(-c3c(Cl)c(OC)cc(OC)c3Cl)cc3cnc(NC)nc32)CC1

>  <thermal shift delta Tm [°C]>
0.2

$$$$
